Cited source: the supplement of paper PMC9844399

Reported values of MALAT1 nuclear FISH intensity for individual entries
# Test system: HeLa;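 further: High-content confocal imaging of branched-DNA amplified FISH in 384-well plates, Hoechst-defined nuclei, score is well value minus plate DMSO median over DMSO robust SD, four wells per compound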
# experiment.notes: MALAT1 nuclear FISH intensity, robust Z-score vs DMSO; higher = more nuclear MALAT1 lncRNA, active = -3 or less
# cond: 10 µM; 6 h

molecule: CC1(C)O[C@@H]2C[C@H]3[C@@H]4C[C@H](F)C5=CC(=O)CC[C@]5(C)[C@H]4[C@@H](O)C[C@]3(C)[C@]2(C(=O)CO)O1 [Flurandrenolide]
MALAT1 nuclear FISH intensity: 0.893
//
molecule: Clc1cccc(Cl)c1NC1=NCCN1 [Clonidine]
MALAT1 nuclear FISH intensity: -1.59
//
molecule: Nc1ccn([C@@H]2CS[C@H](CO)O2)c(=O)n1 [Lamivudine]
MALAT1 nuclear FISH intensity: -0.384
//
molecule: CC(C)[C@@H]1NC(=O)[C@H](Cc2ccccc2)NC(=O)[C@@H](CC(=O)O)NC(=O)CNC(=O)[C@H](CCCN=C(N)N)NC1=O [Cyclo [Arg-Gly-Asp-D-Phe-Val]]
MALAT1 nuclear FISH intensity: -1.55
//
molecule: CC(=O)OCOC(c1ccc2ccccc2c1)P(=O)(OCOC(C)=O)OCOC(C)=O (centres undefined)
MALAT1 nuclear FISH intensity: -0.659
//
molecule: CC1(COc2ccc(CC3SC(=O)NC3=O)cc2)CCCCC1 (centres undefined) [Ciglitazone]
MALAT1 nuclear FISH intensity: 0.154
//
molecule: CC1CNc2c(cccc2S(=O)(=O)N[C@@H](CCCNC(=N)N)C(=O)N2CC[C@@H](C)C[C@@H]2C(=O)O)C1 (some centres undefined) [Argatroban]
MALAT1 nuclear FISH intensity: -1.05
//
molecule: CC(=O)NCCCS(=O)(=O)O [Acamprosate]
MALAT1 nuclear FISH intensity: 1.03
//
molecule: O=C(O)C(S)=Cc1c[nH]c2ccc(F)cc12
MALAT1 nuclear FISH intensity: 0.716
